Tested on: 349418-098-R-PDC complex spheroid viability;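 further: spheroids exposed to compound for seven days before viability readout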
Assay: Anticancer human tumor 349418-098-R-PDC patient-derived lung adenocarcinoma cell line growth inhibition [RAS]
Conditions: second compound 0.00949 µM; first compound 0.1 µM; hits give low values
measurement_type: viability, T/C (%)
# number only, unit % dropped from output

For orientation, consider the following solved cases.
| compound | u | viability, T/C |
| --- | --- | --- |
| O=C(c1ccc(F)c(F)c1Nc1ccc(I)cc1F)N1CC(O)([C@@H]2CCCCN2)C1 + CCn1c(-c2cccnc2C(C)OC)c2c3cc(ccc31)N1CCOC(CC(NC(=O)C(C(C)C)N(C)C(=O)C3(F)CCN(C(=O)C#CC(C)(C)N(C)C)CC3)C(=O)N3CCCC(N3)C(=O)OCC(C)(C)C2)C1 | % | 10.6 |
| C=CC(=O)N1CCN(c2nc(OCC3CCCN3C)nc3c(F)c(-c4nc(N)cc(C)c4C(F)(F)F)c(Cl)cc23)C(C)C1 (centres undefined) + CCn1c(-c2cccnc2C(C)OC)c2c3cc(ccc31)N1CCOC(CC(NC(=O)C(C(C)C)N(C)C(=O)C3(F)CCN(C(=O)C#CC(C)(C)N(C)C)CC3)C(=O)N3CCCC(N3)C(=O)OCC(C)(C)C2)C1 | % | 101 |
| NC1c2ccccc2OC12CCN(c1cnc3c(N4CCCc5ncccc54)n[nH]c3n1)CC2 (centres undefined) + CCn1c(-c2cccnc2C(C)OC)c2c3cc(ccc31)N1CCOC(CC(NC(=O)C(C(C)C)N(C)C(=O)C3(F)CCN(C(=O)C#CC(C)(C)N(C)C)CC3)C(=O)N3CCCC(N3)C(=O)OCC(C)(C)C2)C1 | % | 95.4 |

Give the reported viability, T/C for C=CC(=O)Nc1cc(Nc2nccc(-c3cn(C)c4ccccc34)n2)c(OC)cc1N(C)CCN(C)C + CCn1c(-c2cccnc2C(C)OC)c2c3cc(ccc31)N1CCOC(CC(NC(=O)C(C(C)C)N(C)C(=O)C3(F)CCN(C(=O)C#CC(C)(C)N(C)C)CC3)C(=O)N3CCCC(N3)C(=O)OCC(C)(C)C2)C1 (system: 349418-098-R-PDC complex spheroid viability). 96
